Hi there, I'd appreciate the recorded inhibition for every entry that follows.
target: Leucine-rich repeat serine/threonine-protein kinase 2 (Homo sapiens) (UniProt Q5S007); settings: at 0.1 µM;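 further: reported values are averaged percent inhibition of LRRK2 kinase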
Sequence (Q5S007 whole entry): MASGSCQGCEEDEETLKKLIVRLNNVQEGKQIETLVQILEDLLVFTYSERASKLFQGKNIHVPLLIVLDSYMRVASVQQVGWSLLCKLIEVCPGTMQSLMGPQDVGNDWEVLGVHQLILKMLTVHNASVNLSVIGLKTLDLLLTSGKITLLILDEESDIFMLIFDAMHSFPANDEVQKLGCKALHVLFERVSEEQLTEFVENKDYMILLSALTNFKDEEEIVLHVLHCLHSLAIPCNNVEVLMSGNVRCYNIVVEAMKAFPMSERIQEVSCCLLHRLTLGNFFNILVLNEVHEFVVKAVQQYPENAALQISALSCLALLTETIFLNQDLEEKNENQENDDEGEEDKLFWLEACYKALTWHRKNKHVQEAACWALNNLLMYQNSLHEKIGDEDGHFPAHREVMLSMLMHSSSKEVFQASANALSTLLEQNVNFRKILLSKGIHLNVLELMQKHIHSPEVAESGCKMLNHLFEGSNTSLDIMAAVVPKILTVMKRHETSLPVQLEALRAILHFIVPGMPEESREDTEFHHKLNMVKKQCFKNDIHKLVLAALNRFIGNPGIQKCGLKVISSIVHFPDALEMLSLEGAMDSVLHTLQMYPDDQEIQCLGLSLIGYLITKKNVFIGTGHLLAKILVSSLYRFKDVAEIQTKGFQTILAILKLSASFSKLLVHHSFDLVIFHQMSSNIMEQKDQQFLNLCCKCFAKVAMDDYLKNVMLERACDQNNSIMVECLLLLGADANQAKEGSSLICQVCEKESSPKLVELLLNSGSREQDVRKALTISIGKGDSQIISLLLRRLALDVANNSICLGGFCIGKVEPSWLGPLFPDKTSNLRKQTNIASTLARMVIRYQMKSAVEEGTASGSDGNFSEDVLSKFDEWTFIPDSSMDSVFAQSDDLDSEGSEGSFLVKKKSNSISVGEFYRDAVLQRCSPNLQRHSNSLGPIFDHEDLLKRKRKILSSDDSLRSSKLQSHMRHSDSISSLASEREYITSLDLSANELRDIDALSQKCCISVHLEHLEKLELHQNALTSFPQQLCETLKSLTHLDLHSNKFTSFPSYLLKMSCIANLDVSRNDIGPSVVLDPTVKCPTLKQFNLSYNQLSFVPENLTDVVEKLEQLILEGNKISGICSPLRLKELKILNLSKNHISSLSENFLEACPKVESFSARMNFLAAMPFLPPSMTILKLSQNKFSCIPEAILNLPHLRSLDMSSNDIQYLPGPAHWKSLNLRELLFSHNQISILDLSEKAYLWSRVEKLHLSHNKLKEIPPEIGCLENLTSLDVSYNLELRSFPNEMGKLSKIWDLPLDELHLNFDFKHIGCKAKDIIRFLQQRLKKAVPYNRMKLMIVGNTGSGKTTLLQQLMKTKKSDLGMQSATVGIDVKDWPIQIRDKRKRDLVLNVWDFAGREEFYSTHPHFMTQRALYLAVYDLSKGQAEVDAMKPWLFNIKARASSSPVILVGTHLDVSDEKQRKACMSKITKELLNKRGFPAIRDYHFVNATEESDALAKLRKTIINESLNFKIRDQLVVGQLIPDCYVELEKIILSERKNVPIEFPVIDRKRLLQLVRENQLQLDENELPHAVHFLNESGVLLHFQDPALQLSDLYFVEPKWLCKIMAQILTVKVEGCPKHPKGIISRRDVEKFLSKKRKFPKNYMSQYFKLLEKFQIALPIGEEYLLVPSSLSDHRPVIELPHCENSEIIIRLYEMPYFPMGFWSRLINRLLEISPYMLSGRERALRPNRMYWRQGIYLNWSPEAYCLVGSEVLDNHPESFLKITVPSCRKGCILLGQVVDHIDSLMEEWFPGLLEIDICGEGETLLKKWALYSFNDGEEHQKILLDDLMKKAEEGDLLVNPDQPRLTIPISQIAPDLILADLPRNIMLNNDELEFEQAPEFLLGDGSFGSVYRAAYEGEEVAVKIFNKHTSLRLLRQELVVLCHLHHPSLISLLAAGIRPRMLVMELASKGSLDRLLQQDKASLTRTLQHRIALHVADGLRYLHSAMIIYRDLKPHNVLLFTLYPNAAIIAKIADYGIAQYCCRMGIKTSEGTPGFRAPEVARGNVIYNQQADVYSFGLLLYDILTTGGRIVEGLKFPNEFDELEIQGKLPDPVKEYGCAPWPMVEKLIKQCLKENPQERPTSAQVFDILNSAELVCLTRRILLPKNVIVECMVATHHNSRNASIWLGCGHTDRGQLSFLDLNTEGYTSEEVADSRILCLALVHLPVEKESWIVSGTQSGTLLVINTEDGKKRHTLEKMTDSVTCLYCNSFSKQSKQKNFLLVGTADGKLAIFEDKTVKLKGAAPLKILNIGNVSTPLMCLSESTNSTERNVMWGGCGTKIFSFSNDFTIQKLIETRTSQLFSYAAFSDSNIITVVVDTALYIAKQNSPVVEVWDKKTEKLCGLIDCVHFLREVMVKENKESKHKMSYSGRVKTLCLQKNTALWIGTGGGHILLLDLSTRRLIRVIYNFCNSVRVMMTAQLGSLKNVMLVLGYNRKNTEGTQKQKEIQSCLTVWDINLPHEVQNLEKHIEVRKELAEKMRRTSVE
Answers are plain numbers, in %.

smi=O=C(Nc1n[nH]c2cc(-c3cc(F)ccc3F)ccc12)C1CC1 quantity_name=inhibition u=% numeric_readout=2.33

Hi team, please reply with inhibition for each item in this list.
1. Clc1ccc(CNc2nccc(-c3cnn4ncccc34)n2)cc1
2. COc1cc(Nc2ncc3c(C)nc(-c4cccc(Oc5ccccc5)c4)n3n2)cc(OC)c1OC
3. Fc1ccc(-c2c(-c3ccncc3)nc3n2CCS3)cc1
4. COc1ccc(C2=C(N3CCc4ccccc43)C(=O)NC2=O)cc1

1. 1.21
2. 11.7
3. -3.32
4. 3.04

Need inhibition of "CCS(=O)(=O)c1ccc(OC)c(Nc2ncc(-c3cccc(-c4ccccc4F)c3)o2)c1" , thanks.
1.95

----------
target: Serine/threonine-protein kinase Nek6 (Homo sapiens); conditions: at 1 µM;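 further: values are mean inhibition of NEK6 from the GSK PKIS screen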
Hi there, I'd appreciate the recorded inhibition for every entry that follows.
One number for each entry, in %.

Hi team, please reply with inhibition for each item in this list.
1. C/C(Nc1ccc(S(N)(=O)=O)cc1)=C1/C(=O)Nc2ccccc21
2. COc1cc2ncn(-c3cc(OCc4cccs4)c(C(N)=O)s3)c2cc1OC

1. -0.83
2. 6.02

Hi team, please reply with inhibition for each item in this list.
1. C[C@@H](Oc1cc(-n2cnc3ccc(OC4CCN(C)CC4)cc32)sc1C(N)=O)c1ccccc1Cl
2. COc1cc2ncn(-c3cc(OCCc4ccccc4)c(C(N)=O)s3)c2cc1OC
3. CS(=O)(=O)CCNCc1cc(-c2cc3c(Nc4ccc(OCc5cccc(F)c5)c(Cl)c4)ncnc3s2)cs1
4. Cc1nnc(-c2ccc(C)c(-c3ccc(C(=O)NCc4ccc(Cl)cc4)cc3)c2)o1
5. CCN(CC)Cc1ccc(Nc2nccc(-c3cnn4ncccc34)n2)cc1
6. COc1cccc(/C=N/Nc2ncnc3c2cnn3-c2cccc(OC)c2)c1
7. COc1ccc2cc(-c3c(-c4ccncc4)nc(-c4ccc([S+](C)[O-])cc4C)n3C)ccc2c1 (stereo not given)

1: 2.21; 2: 1.69; 3: 3.03; 4: 5.29; 5: -0.16; 6: 2.21; 7: 1.1

Hi team, please reply with inhibition for each item in this list.
1. Cc1ccc(C(=O)NC2CCC2)cc1-c1ccc(C(=O)NCC2CC2)cc1
2. O=C(Nc1n[nH]c2cc(-c3cc(F)ccc3F)ccc12)C1CC1
3. CN(C)c1ccc2c(c1)/C(=C/Nc1ccc(S(N)(=O)=O)cc1)C(=O)N2
4. NC(=O)c1ccc(Oc2nccc(-c3c(-c4ccc(F)cc4)ncn3C3CCNCC3)n2)cc1
5. CS(=O)(=O)CCNCc1ccc(-c2ccc3ncnc(Nc4ccc(OCc5ccccc5)c(Br)c4)c3c2)o1
6. CCc1ccc(Oc2nccc(-c3c(-c4ccc(F)cc4)ncn3C3CCNCC3)n2)cc1

1.33
-0.92
2.13
1.67
3.89
0.8

----------
target: Receptor tyrosine-protein kinase erbB-2 (Homo sapiens) (UniProt P04626); conditions: at 1 µM
Sequence (P04626 whole entry): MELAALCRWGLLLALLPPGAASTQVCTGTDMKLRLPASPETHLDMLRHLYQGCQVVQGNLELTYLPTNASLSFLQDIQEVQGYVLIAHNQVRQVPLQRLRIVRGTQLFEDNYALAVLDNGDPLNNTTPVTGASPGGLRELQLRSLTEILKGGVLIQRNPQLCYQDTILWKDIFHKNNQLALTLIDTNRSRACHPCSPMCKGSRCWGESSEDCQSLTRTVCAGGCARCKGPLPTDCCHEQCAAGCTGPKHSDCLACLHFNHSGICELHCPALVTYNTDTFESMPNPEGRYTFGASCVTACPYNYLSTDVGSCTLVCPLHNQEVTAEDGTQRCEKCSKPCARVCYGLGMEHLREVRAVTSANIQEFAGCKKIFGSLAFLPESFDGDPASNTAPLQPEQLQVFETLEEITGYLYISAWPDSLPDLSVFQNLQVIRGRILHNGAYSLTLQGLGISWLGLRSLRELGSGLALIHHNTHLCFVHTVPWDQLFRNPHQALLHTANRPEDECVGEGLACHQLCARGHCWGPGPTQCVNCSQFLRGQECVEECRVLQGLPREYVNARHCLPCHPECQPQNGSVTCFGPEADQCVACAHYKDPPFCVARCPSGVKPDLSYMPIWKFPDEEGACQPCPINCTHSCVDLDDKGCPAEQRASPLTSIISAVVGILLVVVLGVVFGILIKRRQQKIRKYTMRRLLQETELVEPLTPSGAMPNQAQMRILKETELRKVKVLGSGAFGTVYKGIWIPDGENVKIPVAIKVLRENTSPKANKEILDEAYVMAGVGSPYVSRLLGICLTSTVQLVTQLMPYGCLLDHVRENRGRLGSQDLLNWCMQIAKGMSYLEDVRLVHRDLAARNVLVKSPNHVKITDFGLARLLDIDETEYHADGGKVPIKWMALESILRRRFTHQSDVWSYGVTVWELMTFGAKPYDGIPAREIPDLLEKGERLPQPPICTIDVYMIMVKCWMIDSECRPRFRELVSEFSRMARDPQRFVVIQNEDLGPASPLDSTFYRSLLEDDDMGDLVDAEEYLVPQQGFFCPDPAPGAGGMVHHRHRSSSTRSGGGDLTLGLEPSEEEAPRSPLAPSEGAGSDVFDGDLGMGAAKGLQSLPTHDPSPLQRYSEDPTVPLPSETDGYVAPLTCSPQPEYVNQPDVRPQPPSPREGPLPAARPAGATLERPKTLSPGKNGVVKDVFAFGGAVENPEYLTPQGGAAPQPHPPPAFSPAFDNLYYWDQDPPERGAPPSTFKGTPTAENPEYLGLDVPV
Description: GSK_PKIS: ERBB2 mean inhibition at 1 uM [Nanosyn]
quantity-name: inhibition (%)
Give bare numbers, in %.

Below, each entry is followed by its recorded inhibition result.
compound=CCS(=O)(=O)c1ccc(OC)c(Nc2ncc(-c3cccc(-c4ccccc4F)c3)o2)c1 quantity_name=inhibition numeric_readout=2.22
compound=NC(=O)c1ccc(Oc2nccc(-c3c(-c4ccc(F)cc4)ncn3C3CCNCC3)n2)cc1 quantity_name=inhibition numeric_readout=3.35
compound=Fc1ccc(-c2ncn(C3CCNCC3)c2-c2ccnc(Oc3ccc(F)c(F)c3)n2)cc1 quantity_name=inhibition numeric_readout=3.63
compound=NCc1ccc(-n2c(-c3nonc3N)nc3cnccc32)cc1 quantity_name=inhibition numeric_readout=2.56
compound=NS(=O)(=O)c1ccc(Nc2cc(-c3ccc(O)c(F)c3)n[nH]2)cc1 quantity_name=inhibition numeric_readout=-4.29
compound=CN(C)CCOc1ccc(-c2cc(-c3ccc4c(c3)CCC4=NO)c(-c3ccncc3)o2)cc1 quantity_name=inhibition numeric_readout=5.12
compound=COc1cc(Nc2ncc3c(C)nc(-c4cccc(C(F)(F)F)c4)n3n2)cc(OC)c1OC quantity_name=inhibition numeric_readout=3.68
compound=C[C@@H](Oc1cc(-n2cnc3ccc(OCC4CCN(C)CC4)cc32)sc1C(N)=O)c1ccccc1Cl quantity_name=inhibition numeric_readout=4.61
compound="Nc1nccc(-c2c(-c3ccc(F)cc3)ncn2C2CCC(O)CC2)n1 (configuration not stated)" quantity_name=inhibition numeric_readout=4.64
compound=Cc1ccc(NC(=O)c2ccoc2)cc1-c1ccc(C(=O)NCC2CC2)cc1 quantity_name=inhibition numeric_readout=5.7

Hi team, please reply with inhibition for each item in this list.
1. COc1cc(C)c(N(C)C(=O)CN(C)C)cc1Nc1nc(Nc2cccc(F)c2C(N)=O)c2cc[nH]c2n1
2. Fc1ccc(-c2c(-c3ccncc3)nc3n2CCS3)cc1

[-3.53, 0.17]

----------
target: Protein kinase C theta type (Homo sapiens) (UniProt Q04759); settings: at 0.1 µM;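 further: reported figure is the mean percent inhibition of PKC-theta, from the GSK PKIS screen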
Sequence (Q04759 whole entry, looked up): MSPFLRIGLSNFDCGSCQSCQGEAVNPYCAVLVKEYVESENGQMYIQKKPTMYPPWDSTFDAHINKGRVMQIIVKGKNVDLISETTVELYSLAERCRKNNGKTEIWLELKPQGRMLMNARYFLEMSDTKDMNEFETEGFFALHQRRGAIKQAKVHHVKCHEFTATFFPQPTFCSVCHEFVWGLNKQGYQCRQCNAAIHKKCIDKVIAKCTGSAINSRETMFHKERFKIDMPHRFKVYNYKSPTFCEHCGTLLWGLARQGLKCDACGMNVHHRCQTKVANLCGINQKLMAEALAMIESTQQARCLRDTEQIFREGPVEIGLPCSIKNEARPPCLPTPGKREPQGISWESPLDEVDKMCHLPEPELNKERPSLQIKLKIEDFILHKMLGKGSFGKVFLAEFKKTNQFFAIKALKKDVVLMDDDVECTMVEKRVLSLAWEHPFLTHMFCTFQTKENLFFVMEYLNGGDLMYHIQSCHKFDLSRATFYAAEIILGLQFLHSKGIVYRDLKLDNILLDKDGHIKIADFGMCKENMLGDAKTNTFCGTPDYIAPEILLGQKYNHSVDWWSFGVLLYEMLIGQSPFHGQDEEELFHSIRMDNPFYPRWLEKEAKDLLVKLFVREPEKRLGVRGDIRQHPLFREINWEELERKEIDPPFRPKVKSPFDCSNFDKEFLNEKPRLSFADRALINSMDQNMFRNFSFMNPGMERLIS
Hi there, I'd appreciate the recorded inhibition for every entry that follows.
Give bare numbers, in %.

Hi team, please reply with inhibition for each item in this list.
1. Cc1ccc(NC(=O)c2ccoc2)cc1-c1ccc(C(=O)NCC2CC2)cc1
2. CNC(=O)c1cncc(/C=C/c2c(C)cccc2C)c1

[0.79, -0.68]

----------
Hi there, I'd appreciate the recorded inhibition for every entry that follows.
target: Fibroblast growth factor receptor 3 (Homo sapiens); conditions: at 1 µM;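 further: values reported are mean percent inhibition of FGFR3 activity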
Answers are plain numbers, in %.

Below, each entry is followed by its recorded inhibition result.
smi=CS(=O)(=O)CCNCc1cc(-c2cc3c(Nc4ccc(OCc5cccc(F)c5)c(Cl)c4)ncnc3s2)cs1 numeric_readout=6.34
smi=COc1cc(C)c(N(C)C(=O)CN(C)C)cc1Nc1nc(Nc2cccc(F)c2C(N)=O)c2cc[nH]c2n1 numeric_readout=-2.8
smi=COc1cc(Nc2ncc(-c3ccccc3)o2)cc(OC)c1OC numeric_readout=16.6
smi=CCS(=O)(=O)c1ccc(OC)c(Nc2ncc(-c3ccccc3Cl)o2)c1 numeric_readout=32.4

Hi team, please reply with inhibition for each item in this list.
1. FC(F)(F)c1cccc(Nc2nccc(-c3cnn4nc(-c5ccccc5)ccc34)n2)c1
2. CS(=O)(=O)CCNCc1ccc(-c2ccc3ncnc(Nc4ccc(OCc5ccccc5)c(Br)c4)c3c2)o1
3. NS(=O)(=O)c1ccc(Nc2cc(-c3ccc(O)c(F)c3)n[nH]2)cc1
4. Cc1nnc(-c2ccc(C)c(-c3ccc(C(=O)NCc4ccc(Cl)cc4)cc3)c2)o1

2.97
1.62
8.58
-1.81

----------
biological target: Cyclin-dependent kinase 6 (Homo sapiens) (UniProt Q00534); settings: at 0.1 µM;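 further: mean percent inhibition of CDK6 complexed with cyclin D3, from the GSK PKIS kinase inhibitor screen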
Sequence (Q00534 whole entry): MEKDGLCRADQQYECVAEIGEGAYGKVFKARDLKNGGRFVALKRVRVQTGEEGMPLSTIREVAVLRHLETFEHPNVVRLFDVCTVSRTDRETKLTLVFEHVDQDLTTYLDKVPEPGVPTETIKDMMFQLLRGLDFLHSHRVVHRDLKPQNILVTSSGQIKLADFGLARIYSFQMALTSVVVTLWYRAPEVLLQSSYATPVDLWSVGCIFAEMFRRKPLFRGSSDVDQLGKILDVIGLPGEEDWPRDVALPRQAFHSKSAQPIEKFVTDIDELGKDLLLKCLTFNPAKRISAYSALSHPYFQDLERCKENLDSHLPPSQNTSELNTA
quantity-name: inhibition (%)
Give bare numbers, in %.

Below, each entry is followed by its recorded inhibition result.
smi=CCc1cccc(CC)c1/C=C/c1cncc(C(=O)NC)c1 numeric_readout=3.11
smi=c1ccc(-c2n[nH]cc2-c2ccnc(-c3ccc(OCCN4CCOCC4)cc3)c2)nc1 numeric_readout=1.73
smi=CN(C)CCCNc1nccc(-c2c(-c3ccc(F)cc3)nn3cc(C(F)(F)F)ccc23)n1 numeric_readout=-1.2
smi=Fc1ccc(-c2c(-c3ccncc3)nc3n2CCS3)cc1 numeric_readout=-6.1
smi=NC(=O)Cc1ccccc1Oc1nccc(-c2c(-c3ccc(F)cc3)ncn2C2CCNCC2)n1 numeric_readout=-4.52
smi=N#Cc1ccc(Oc2nccc(-c3c(-c4ccc(F)cc4)ncn3C3CCNCC3)n2)cc1 numeric_readout=1.26

Hi team, please reply with inhibition for each item in this list.
1. COc1ccc2ncn(-c3cc(O[C@H](C)c4ccccc4Cl)c(C(N)=O)s3)c2c1
2. Fc1ccc(-c2nc3n(c2-c2ccncc2)CCS3)cc1
3. Clc1ccc(CNc2nccc(-c3cnn4ncccc34)n2)cc1
4. NS(=O)(=O)c1ccc(Nc2cc(-c3ccc(O)c(F)c3)n[nH]2)cc1

[-3.71, -7.51, 13.8, 21.6]

----------
target: Ribosomal protein S6 kinase alpha-2 (Homo sapiens); settings: at 0.1 µM;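 further: reported value is the mean percent inhibition of RSK3, from the GSK PKIS screening panel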
quantity-name: inhibition (%)
Numbers only, in %.

Hi team, please reply with inhibition for each item in this list.
1. Clc1ccc(CNc2nccc(-c3cnn4ncccc34)n2)cc1
2. CN(C)c1ccc2c(c1)/C(=C/Nc1ccc(S(N)(=O)=O)cc1)C(=O)N2
3. COc1cc(Nc2ncc3c(C)nc(-c4cccc(Oc5ccccc5)c4)n3n2)cc(OC)c1OC

[0.62, 5.18, 2.77]

----------
Target: Serine/threonine-protein kinase Chk1 (Homo sapiens) (UniProt O14757);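 further: reported figure is the mean percent inhibition of CHEK1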
Sequence (whole entry): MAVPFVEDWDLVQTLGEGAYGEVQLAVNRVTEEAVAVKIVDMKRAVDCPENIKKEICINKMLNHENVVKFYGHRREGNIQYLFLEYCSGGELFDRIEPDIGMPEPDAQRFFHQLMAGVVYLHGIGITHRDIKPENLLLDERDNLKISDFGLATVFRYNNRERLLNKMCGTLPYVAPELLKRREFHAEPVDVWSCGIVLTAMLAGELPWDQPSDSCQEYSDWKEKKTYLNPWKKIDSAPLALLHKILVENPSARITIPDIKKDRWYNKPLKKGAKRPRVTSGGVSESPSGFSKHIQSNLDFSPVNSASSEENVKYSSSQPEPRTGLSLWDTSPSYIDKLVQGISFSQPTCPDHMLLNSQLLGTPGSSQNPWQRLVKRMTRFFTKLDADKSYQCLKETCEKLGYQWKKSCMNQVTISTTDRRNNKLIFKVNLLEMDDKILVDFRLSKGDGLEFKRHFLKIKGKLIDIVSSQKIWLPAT
Settings: at 0.1 µM
quantity-name: inhibition (%)
Numbers only, in %.

Below, each entry is followed by its recorded inhibition result.
compound=C[C@@H](Oc1cc(-n2cnc3ccc(OC4CCN(C)CC4)cc32)sc1C(N)=O)c1ccccc1Cl numeric_readout=0.96
compound=Fc1ccc(-c2ncn(C3CCNCC3)c2-c2ccnc(Oc3ccc(Oc4ccccc4)cc3)n2)cc1 numeric_readout=10.6
compound=NC(=O)c1cc(-c2ccncc2)cc(-c2ccccc2)c1N numeric_readout=-1.87
compound=CS(=O)(=O)CCNCc1cc(-c2cc3c(Nc4ccc(OCc5cccc(F)c5)c(Cl)c4)ncnc3s2)cs1 numeric_readout=1.14
compound=Cc1ccc(C(=O)NC(C)C)cc1-c1ccc(C(=O)NCC2CC2)cc1 numeric_readout=-1.72
compound=CCc1ccc(Oc2nccc(-c3c(-c4ccc(F)cc4)ncn3C3CCNCC3)n2)cc1 numeric_readout=4.54
compound=NC(=O)c1ccc(Oc2nccc(-c3c(-c4ccc(F)cc4)ncn3C3CCNCC3)n2)cc1 numeric_readout=-2.66
compound=O=C(Nc1n[nH]c2cc(-c3ccccc3)ccc12)C1CC1 numeric_readout=2.36

Hi team, please reply with inhibition for each item in this list.
1. COc1cc2ncn(-c3cc(OCCc4ccccc4)c(C(N)=O)s3)c2cc1OC
2. O=C1NC(=O)C(c2cccc(Cl)c2)=C1Nc1ccc(Cl)c(C(=O)O)c1
3. Cc1ccc(C(=O)NC2CCC2)cc1-c1ccc(C(=O)NCC2CC2)cc1
4. O=C(Nc1ccc(Oc2ccc3[nH]c(NC(=O)c4ccccc4)nc3c2)cc1)Nc1cc(C(F)(F)F)ccc1F
5. COc1ccc(C2=C(N3CCc4ccccc43)C(=O)NC2=O)cc1
6. C[C@@H](Oc1cc(-n2cnc3ccc(OCC4CCN(C)CC4)cc32)sc1C(N)=O)c1ccccc1Cl

1. 1.61
2. 0.81
3. 2.53
4. 4.82
5. 3.53
6. 7.19

Hi team, please reply with inhibition for each item in this list.
1. COC(=O)Nc1nc2ccc(Sc3ccc(NC(=O)Nc4cc(C(F)(F)F)ccc4F)cc3)cc2[nH]1
2. Nc1nccc(-c2c(-c3ccc(F)cc3)ncn2C2CCC(O)CC2)n1 (stereo not drawn)
3. O=C(Nc1n[nH]c2nc(-c3ccco3)ccc12)C1CC1
4. C/C(Nc1ccc(S(N)(=O)=O)cc1)=C1/C(=O)Nc2ccccc21
5. COc1cc2ncn(-c3cc(OCc4cccs4)c(C(N)=O)s3)c2cc1OC
6. CNC(=O)c1cncc(/C=C/c2c(C)cccc2C)c1
7. O=C1Nc2ccc(I)cc2C1=Cc1cc(Br)c(O)c(Br)c1

[2.81, -3.08, 1.37, 4.5, 1.35, -0.79, 0.05]

Hi team, please reply with inhibition for each item in this list.
1. Cc1ccc(NC(=O)c2ccoc2)cc1-c1ccc(C(=O)NCC2CC2)cc1
2. COc1cc(N2CCN(C(C)C)CC2)ccc1Nc1nc(Nc2ccc(F)cc2C(=O)NC[C@@H](O)CO)c2cc[nH]c2n1
3. COc1ccc(-c2ccc3c(NC(=O)C4CC4)n[nH]c3n2)cc1
4. COc1cc2ncn(-c3cc(OCc4ccccc4C(F)(F)F)c(C(C)=O)s3)c2cc1OC
5. FC(F)(F)c1cccc(Nc2nccc(-c3cnn4nc(-c5ccccc5)ccc34)n2)c1
6. Fc1ccc(-c2c(-c3ccncc3)nc3n2CCS3)cc1
7. c1ccc(Oc2ccc(Nc3ncc(-c4ccccc4)o3)cc2)cc1

1: 2; 2: 2.18; 3: 2.25; 4: 2.09; 5: 3.93; 6: 0.42; 7: 0.67

Hi team, please reply with inhibition for each item in this list.
1. Fc1ccc(-c2ncn(C3CCNCC3)c2-c2ccnc(Oc3ccc(F)c(F)c3)n2)cc1
2. COc1cccc(/C=N/Nc2ncnc3c2cnn3-c2cccc(OC)c2)c1
3. CN(c1ccc(NC(=O)Nc2c(Cl)cccc2Cl)cc1)c1ccnc(Nc2cccc(CS(C)(=O)=O)c2)n1
4. O=C(NCC1CC1)c1ccc(-c2cccc(C(=O)NC3CC3)c2)cc1
5. c1ccc(-c2n[nH]cc2-c2ccnc(-c3ccc(OCCN4CCOCC4)cc3)c2)nc1

[-3.21, -0.79, 1.99, -3.93, 1.01]
